# measurement.description: Pharmacokinetics in ICR mice after intravenous and intragastric administration
# Type: in vivo
# conditions: male, ICR, mouse, plasma, iv, 2 mg/kg, ICR mice, IV 2 mg/kg, individual animal
clearance by entry:
Numeric only. Scale: mL/min/kg

Consider the worked cases shown below.
[[record]]
compound_structure_string = "COc1ccc(-c2nc3c(n2C(C)C)[C@@]2(C(=O)Nc4cc(Cl)ccc42)N(c2cc(Cl)cnc2C)C3=O)c(OC)c1"
endpoint_value = 9.19

[[record]]
compound_structure_string = "COc1cc(OC(C)C)ncc1-c1nc2c(n1C(C)C)[C@@]1(C(=O)Nc3cc(Cl)ccc31)N(c1cc(Cl)ccc1C)C2=O"
endpoint_value = 0.63

[[record]]
compound_structure_string = "COc1nc(C2CC2)ncc1-c1nc2c(n1C(C)C)[C@@]1(C(=O)Nc3cc(Cl)ccc31)N(c1cc(Cl)ccc1C)C2=O"
endpoint_value = 1.14

[[record]]
compound_structure_string = "COc1cc(OC)c(-c2nc3c(n2C(C)C)[C@@]2(C(=O)Nc4cc(Cl)ccc42)N(c2cc(Cl)cnc2C)C3=O)cn1"
endpoint_value = 26.4

[[record]]
compound_structure_string = "COc1cc(C(C)C)ccc1-c1nc2c(n1C(C)C)[C@@]1(C(=O)Nc3cc(Cl)ccc31)N(c1cc(Cl)ccc1C)C2=O"
endpoint_value = 4.37

[[record]]
compound_structure_string = "CCOc1cc(OC)c(-c2nc3c(n2C(C)C)[C@@]2(C(=O)Nc4cc(Cl)ccc42)N(c2cc(Cl)ccc2F)C3=O)cn1"
endpoint_value = 3.16

[[record]]
compound_structure_string = "COc1ncc(-c2nc3c(n2C(C)C)[C@@]2(C(=O)Nc4cc(Cl)ccc42)N(c2cc(F)cc(Cl)c2)C3=O)c(OC)n1"
endpoint_value = 18.3


What value of clearance has been reported for the following compound? COc1ncc(-c2nc3c(n2C(C)C)[C@@]2(C(=O)Nc4cc(Cl)ccc42)N(c2cc(Cl)ccc2F)C3=O)c(OC)n1
12.1
